- Test system: velvetleaf (Abutilon theophrasti)
- experiment description: Test C preemergence
- Type: in vivo
- cond: preemergence, Rate 250 g/ha, visual evaluation after 12 to 14 days
measurement label: Plant response rating (0 to 100), Velvetleaf
Form field (numeric): enter value without unit.

[
  {
    "compound": "O=C1C(n2ccc(C3CC3)n2)OCN1c1cccc(C(F)(F)F)c1 (centres unmarked)",
    "numeric result": 0
  },
  {
    "compound": "CC(C)(C)c1ccn(C2CCN(c3ccc(Cl)c(Cl)c3)C2=O)n1 (centres unmarked)",
    "numeric result": 0
  },
  {
    "compound": "CC1(c2ccn(C3OCN(c4cccc(C(F)(F)F)c4)C3=O)n2)CC1 (centres unmarked)",
    "numeric result": 0
  },
  {
    "compound": "O=C1C(n2ccc(C3CCC3)n2)SCN1c1cccc(OC(F)F)c1 (centres unmarked)",
    "numeric result": 20
  }
]

Incoming: Entry under review: CC(C)(C)c1ccn(C2CCN(c3cccc(OC(F)(F)F)c3)C2=O)n1 (centres unmarked) . Reported Plant response rating (0 to 100), Velvetleaf?
Outgoing: 30

Incoming: Entry under review: CC(C)(C)c1ccn(C2CCN(c3ccc(Cl)c(Br)c3)C2=O)n1 (centres unmarked) . Reported Plant response rating (0 to 100), Velvetleaf?
Outgoing: 0

Incoming: Entry under review: CC(C)c1ccn(C2OCN(c3cccc(C(F)(F)F)c3)C2=O)n1 (centres unmarked) . Reported Plant response rating (0 to 100), Velvetleaf?
Outgoing: 0

Incoming: Entry under review: CC(C)(C)c1ccn(C2SCN(c3cccc(OC(F)F)c3)C2=O)n1 (centres unmarked) . Reported Plant response rating (0 to 100), Velvetleaf?
Outgoing: 40

====

- Test system: cocklebur (Xanthium strumarium)
- experiment description: Test C preemergence
- Format: in vivo
- cond: Preemergence; Rate 500 g/ha; scale 0 to 100
- Excerpt: […]
measurement label: Plant response rating, Cocklebur
Form field (numeric): enter value without unit.

Sample records with Plant response rating, Cocklebur:
[
  {
    "compound": "CCC(C)c1ccn(C2SCN(c3cccc(OC(F)(F)F)c3)C2=O)n1 (stereo not shown) [Compound 40]",
    "Plant response rating, Cocklebur": 60
  },
  {
    "compound": "O=C1C(n2ccc(C3CCC3)n2)OCN1c1cccc(C(F)(F)F)c1 (stereo not shown) [Compound 39]",
    "Plant response rating, Cocklebur": 0
  }
]

Incoming: # get_value(readout= Plant response rating, Cocklebur, system= cocklebur (Xanthium strumarium)) for CC(C)(C)c1ccn(C2CCN(c3cccc(C(F)(F)F)c3)C2=S)n1 (stereo not shown) [Compound 22]
Outgoing: 0

Incoming: # get_value(readout= Plant response rating, Cocklebur, system= cocklebur (Xanthium strumarium)) for O=C1C(n2ccc(C3CC3)n2)CCN1c1cccc(C(F)(F)F)c1 (stereo not shown) [Compound 8]
Outgoing: 0

====

- System: velvetleaf (Abutilon theophrasti)
- experiment description: Test C postemergence
- Assay type: in vivo
- cond: Rate 500 g/ha, scale 0 to 100 (0 no effect, 100 complete control)
Answer 0.0 if Plant response rating, Velvetleaf is under 40, and 1.0 if it is 40 or more.

[
  {
    "molecule": "CCC(CC)c1ccn(C2SCN(c3cccc(C(F)(F)F)c3)C2=O)n1 (centres unmarked) [Compound 25]",
    "classification": 1.0
  },
  {
    "molecule": "CCC(C)c1ccn(C2SCN(c3cccc(OC(F)(F)F)c3)C2=O)n1 (centres unmarked) [Compound 40]",
    "classification": 0.0
  },
  {
    "molecule": "O=C1C(n2ccc(C3CCC3)n2)SCN1c1cccc(OC(F)(F)F)c1 (centres unmarked) [Compound 38]",
    "classification": 0.0
  }
]

Consider now this further molecule.
Incoming: Would you say CCC(CC)c1ccn(C2OCN(c3cccc(OC(F)(F)F)c3)C2=O)n1 (centres unmarked) [Compound 68] shows Plant response rating, Velvetleaf at minimum 40?
Outgoing: 0.0

====

- Tested on: duck salad (Heteranthera limosa)
- experiment description: Test C flooded paddy test
- Format: in vivo
- cond: flooded paddy test, Rate 125 g/ha; scale 0 to 100 (0 no effect, 100 complete control)
measurement label: Plant response rating, Ducksalad
Form field (numeric): enter value without unit.

Sample records with Plant response rating, Ducksalad:
[
  {
    "compound": "CCC(C)c1ccn(C2OCN(c3cccc(OC(F)(F)F)c3)C2=O)n1 (stereo not drawn) [Compound 67]",
    "measurement label": "Plant response rating, Ducksalad",
    "numeric result": 90
  },
  {
    "compound": "CCOc1cccc(N2CCC(n3ccc(C(C)C)n3)C2=O)c1 (stereo not drawn) [Compound 128]",
    "measurement label": "Plant response rating, Ducksalad",
    "numeric result": 70
  },
  {
    "compound": "O=C1C(n2ccc(C3CCC3)n2)SCN1c1cccc(OC(F)F)c1 (stereo not drawn) [Compound 45]",
    "measurement label": "Plant response rating, Ducksalad",
    "numeric result": 80
  },
  {
    "compound": "CCCC(C)c1ccn(C2CCN(c3cccc(C(F)(F)F)c3)C2=O)n1 (stereo not drawn) [Compound 100]",
    "measurement label": "Plant response rating, Ducksalad",
    "numeric result": 0
  },
  {
    "compound": "CCOc1cccc(N2CCC(n3ccc(C(CC)CC)n3)C2=O)c1 (stereo not drawn) [Compound 125]",
    "measurement label": "Plant response rating, Ducksalad",
    "numeric result": 95
  }
]

Incoming: Entry under review: O=C1C(n2ccc(C3CC3)n2)OCN1c1cccc(C(F)(F)F)c1 (stereo not drawn) [Compound 28] . Reported Plant response rating, Ducksalad?
Outgoing: 0

Incoming: Entry under review: COc1cc(N2CCC(n3ccc(C(C)(C)C)n3)C2=O)ccc1Br (stereo not drawn) [Compound 141] . Reported Plant response rating, Ducksalad?
Outgoing: 95

Incoming: Entry under review: CCCCC(CCCC)c1ccn(C2OCN(c3cccc(OC(F)(F)F)c3)C2=O)n1 (stereo not drawn) [Compound 113] . Reported Plant response rating, Ducksalad?
Outgoing: 0

Incoming: Entry under review: CC(C)Oc1cccc(N2CCC(n3ccc(C(C)C)n3)C2=O)c1 (stereo not drawn) [Compound 82] . Reported Plant response rating, Ducksalad?
Outgoing: 30

Incoming: Entry under review: CCC(C)Oc1ccn(C2CCN(c3cccc(C(F)(F)F)c3)C2=O)n1 (stereo not drawn) [Compound 58] . Reported Plant response rating, Ducksalad?
Outgoing: 0

Incoming: Entry under review: CCCC(C)c1ccn(C2OCN(c3cccc(OC(F)(F)F)c3)C2=O)n1 (stereo not drawn) [Compound 91] . Reported Plant response rating, Ducksalad?
Outgoing: 0

Incoming: Entry under review: CC(C)(C)c1ccn(C2CCN(c3cccc(OC(F)(F)C(F)F)c3)C2=O)n1 (stereo not drawn) [Compound 48] . Reported Plant response rating, Ducksalad?
Outgoing: 20

Incoming: Entry under review: CCC(C)c1ccn(C2SCN(c3cccc(OC(F)(F)F)c3)C2=O)n1 (stereo not drawn) [Compound 32] . Reported Plant response rating, Ducksalad?
Outgoing: 80

Incoming: Entry under review: CC(C)(C)c1ccn(C2SCN(c3cccc(C(F)(F)F)c3)C2=O)n1 (stereo not drawn) [Compound 1] . Reported Plant response rating, Ducksalad?
Outgoing: 90

Incoming: Entry under review: CCCC(C)c1ccn(C2CCN(c3cccc(OC)c3)C2=O)n1 (stereo not drawn) [Compound 99] . Reported Plant response rating, Ducksalad?
Outgoing: 0

Incoming: Entry under review: CCC(C)c1ccn(C2SCN(c3cccc(C(F)(F)F)c3)C2=O)n1 (stereo not drawn) [Compound 20] . Reported Plant response rating, Ducksalad?
Outgoing: 100

Incoming: Entry under review: O=C1C(n2ccc(C3CCCCC3)n2)OCN1c1cccc(C(F)(F)F)c1 (stereo not drawn) [Compound 51] . Reported Plant response rating, Ducksalad?
Outgoing: 0

Incoming: Entry under review: CCC(CC)c1ccn(C2CCN(c3ccc(F)c(C(F)(F)F)c3)C2=O)n1 (stereo not drawn) [Compound 144] . Reported Plant response rating, Ducksalad?
Outgoing: 50

====

- Tested on: Sunflower
- experiment description: Test C preemergence
- Assay type: in vivo
- cond: Rate 125 g/ha, scale 0 to 100, 0 no effect, 100 complete control
measurement label: Plant response rating, Sunflower
Form field (numeric): enter value without unit.

Sample records with Plant response rating, Sunflower:
[
  {
    "compound": "CC(C)(C)c1ccn(C2CCN(c3ccc(Cl)c(Br)c3)C2=O)n1 (centres unmarked) [Compound 56]",
    "Plant response rating, Sunflower": 0
  },
  {
    "compound": "CCOC(=O)c1cccc(N2CCC(n3ccc(C(C)(C)C)n3)C2=O)c1 (centres unmarked) [Compound 72]",
    "Plant response rating, Sunflower": 20
  },
  {
    "compound": "O=C1C(n2ccc(C3CC3)n2)CCN1c1cccc(C(F)(F)F)c1 (centres unmarked) [Compound 8]",
    "Plant response rating, Sunflower": 0
  },
  {
    "compound": "O=C1C(n2ccc(C3CCCCC3)n2)SCN1c1cccc(OC(F)(F)F)c1 (centres unmarked) [Compound 50]",
    "Plant response rating, Sunflower": 30
  },
  {
    "compound": "CC1(c2ccn(C3SCN(c4cccc(OC(F)(F)F)c4)C3=O)n2)CC1 (centres unmarked) [Compound 63]",
    "Plant response rating, Sunflower": 0
  },
  {
    "compound": "O=C1C(n2ccc(C3CCC3)n2)SCN1c1cccc(OC(F)(F)F)c1 (centres unmarked) [Compound 38]",
    "Plant response rating, Sunflower": 0
  },
  {
    "compound": "CC(C)(C)c1ccn(C2CCN(c3cccc(Br)c3)C2=O)n1 (centres unmarked) [Compound 33]",
    "Plant response rating, Sunflower": 0
  },
  {
    "compound": "CCC(C)c1ccn(C2OCN(c3cccc(OC(F)(F)F)c3)C2=O)n1 (centres unmarked) [Compound 67]",
    "Plant response rating, Sunflower": 0
  }
]

Incoming: Entry under review: CC(C)(C)c1ccn(C2SCN(c3cccc(OC(F)F)c3)C2=O)n1 (centres unmarked) [Compound 36] . Reported Plant response rating, Sunflower?
Outgoing: 0

Incoming: Entry under review: CC(C)c1ccn(C2SCN(c3cccc(OC(F)(F)F)c3)C2=O)n1 (centres unmarked) [Compound 31] . Reported Plant response rating, Sunflower?
Outgoing: 30

Incoming: Entry under review: CCC(CC)c1ccn(C2SCN(c3cccc(C(F)(F)F)c3)C2=O)n1 (centres unmarked) [Compound 21] . Reported Plant response rating, Sunflower?
Outgoing: 70
